# testProtocol: Cytotoxic activity against HEK293 cells assessed as reduction in cell viability incubated for 6 hrs
# Format: cell-based
# cond: human
observedProperty: CC50 at 6 h

Consider the worked cases shown below.
CCCCNc1nc(N)nc2cccc(OCc3ccc(CO)cc3OC)c12 | 16 µM
CCCCNc1nc(N)nc2cc(OC)c(OC)cc12 | > 18 µM

Q) Which CC50 at 6 h value is on record for CCCCNc1nc(N)nc2ccc(CCc3ccc(N(C)C)cc3)cc12 ?
A) > 18 µM

Q) # input molecule: CCCCNc1nc(N)nc2ccc(OC)cc12 ; wanted: its CC50 at 6 h
A) > 18 µM

Q) Reported CC50 at 6 h for CCCCNc1nc(N)nc2ccc(CCc3ccccn3)cc12 : what is it?
A) > 18 µM

Q) For the molecule shown here, CCCCNc1nc(N)nc2cccc(C(=O)NC)c12 , give the reported CC50 at 6 h.
A) > 25 µM

Q) Which value of CC50 at 6 h has been reported for CCCCNc1nc(N)nc2cccc(C(=O)NCc3ccccc3)c12 in the records?
A) > 25 µM

All values here come from ChEMBL document CHEMBL4184225.
